target-or-system: DDE
protocol-details: direct binding fluorescence polarization: CF5-labeled peptide titrated with DDE; n = 2
Bridge positions count the residues as written; N and C are the ends. Square brackets hold non-standard residues; d marks the D form. Ends that are not written are not given here. * marks the point of attachment. αGalNAc = CC(=O)N[C@@H]1[C@@H](O)[C@@H](O)[C@@H](CO)O[C@@H]1*; 5FAM = O=C1OC2(c3ccc(O)cc3Oc3cc(O)ccc32)c2ccc(C(=O)*)cc21; Phe(3,4-F2) = N[C@@H](Cc1ccc(F)c(F)c1)C(=O)O; Thf2ca = tetrahydrofuran-2-carboxylic acid; Cha = N[C@@H](CC1CCCCC1)C(=O)O; CF5 = 5-carboxyfluorescein
assay-endpoint: Kd (nM)

{"columns": ["binder", "Kd (nM)"],
 "data": [
  ["Ac-RWQPCPAESWTFCWDPGGGK(5FAM)-NH2 (disulfide 5-13; not fully specified) [Seq049-CF5]", 210],
  ["Thf2ca-WQPCPWESWTFCWDPGGGK(CF5)-NH2 (disulfide 4-12) [Seq028-CF5]", 1210],
  ["Ac-WQPCPWESWT[Phe(3,4-F2)]CWDPGGGK(CF5)-NH2 (disulfide 4-12) [Seq020-CF5]", 700]
]}

A = RWQPCPAESWT[Cha]CWDPGGGK(CF5)-NH2 (disulfide 5-13) [Seq057-CF5]
B = Ac-S(αGalNAc)WQPCPWESWTFCWDPGGGK(CF5)-NH2 (disulfide 5-13) [Seq027-CF5]
Query: Pick one: A or B . Which has the bigger Kd number? # respond with the chosen item's label
Reply: B
(B: 500 nM, A: 30 nM)

P = Ac-RGWQPCPWESWTFCWDPGGGK(5FAM)-NH2 (disulfide 6-14; not fully specified) [Seq052-CF5]
Q = GWQPCPAESWT[Cha]CWDPGGGK(CF5)-NH2 (disulfide 5-13) [Seq051-CF5]
Query: Which value of Kd is smaller, the one for P or the one for Q ? // caller expects the label of the chosen entry
Reply: Q
